target: germline 10E8 (predicted germline precursor to 10E8); experiment: SPR
QUANTITY: Kd (µM)
Lab book: enter the figure in µM, no units written.

Check out these entries, answers already filled in.
binder="10E8_T117v2-3 (designed binder) NAMQGIHFRRHYVRHLPKEVSQNDIIKALASPLINDGMVVSDFADHVITREQNFPTGLPVEPVGVAIPHTDSKYVRQNAISVGILAEPVNFEDAGGEPDPVPVRVVFMLALGSWFNISNVLWWIRAVIQDEDFMQQLLVMNDDEIYQSIYTRISELEHHHHHH" quantity=Kd readout_number=8
binder="10E8_T117v2-4 (designed binder) NAMQGIHFRRHYVRHLPKEVSQNDIIKALASPLINDGMVVSDFADHVITREQNFPTGLPVEPVGVAIPHTDSKYVRQNAISVGILAEPVNFEDAGGEPDPVPVRVVFMLALGNWFDISRVLWWIKAVIQDEDFMQQLLVMNDDEIYQSIYTRISELEHHHHHH" quantity=Kd readout_number=8

Attention now shifts to the item below.
Item 10E8_T117v2-1 (designed binder) NAMQGIHFRRHYVRHLPKEVSQNDIIKALASPLINDGMVVSDFADHVITREQNFPTGLPVEPVGVAIPHTDSKYVRQNAISVGILAEPVNFEDAGGEPDPVPVRVVFMLALGNWFDITNVLWWIKAVIQDEDFMQQLLVMNDDEIYQSIYTRISELEHHHHHH : provide Kd
6

Every entry's value here was drawn from patent US9707290.
